B1: ATGL (PNPLA2, patatin-like phospholipase domain-containing protein 2), human, full length / perilipin-1, mouse (mPlin1) (parent)
chain 1: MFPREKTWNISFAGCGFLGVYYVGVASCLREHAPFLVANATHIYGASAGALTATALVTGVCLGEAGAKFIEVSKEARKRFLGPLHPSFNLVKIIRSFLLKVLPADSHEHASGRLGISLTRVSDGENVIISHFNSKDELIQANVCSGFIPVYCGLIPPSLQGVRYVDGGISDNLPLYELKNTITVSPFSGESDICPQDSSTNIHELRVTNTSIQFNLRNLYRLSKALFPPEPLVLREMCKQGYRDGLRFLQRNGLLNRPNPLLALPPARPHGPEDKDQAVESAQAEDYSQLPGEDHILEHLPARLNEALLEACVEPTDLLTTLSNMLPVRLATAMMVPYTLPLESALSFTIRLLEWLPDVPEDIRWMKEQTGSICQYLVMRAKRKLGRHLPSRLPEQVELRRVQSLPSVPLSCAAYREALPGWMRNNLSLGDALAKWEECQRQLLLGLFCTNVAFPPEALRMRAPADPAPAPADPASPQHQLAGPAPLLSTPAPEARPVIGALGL
chain 2: MSMNKGPTLLDGDLPEQENVLQRVLQLPVVSGTCECFQKTYNSTKEAHPLVASVCNAYEKGVQGASNLAAWSMEPVVRRLSTQFTAANELACRGLDHLEEKIPALQYPPEKIASELKGTISTRLRSARNSISVPIASTSDKVLGATLAGCELALGMAKETAEYAANTRVGRLASGGADLALGSIEKVVEFLLPPDKESAPSSGRQRTQKAPKAKPSLVRRVSTLANTLSRHTMQTTAWALKQGHSLAMWIPGVAPLSSLAQWGASAAMQVVSRRQSEVRVPWLHNLAASQDESHDDQTDTEGEETDDEEEEEESEAEENVLREVTALPNPRGLLGGVVHTVQNTLRNTISAVTWAPAAVLGTVGRILHLTPAQAVSSTKGRAMSLSDALKGVTDNVVDTVVHYVPLPRLSLMEPESEFRDIDNPSAEAERKGSGARPASPESTPRPGQPRGSLRSVRGLSAPSCPGLDDKTEASARPGFLAMPREKPARRVSDSFFRPSVMEPILGRAQYSQLRKKS

variants of: B1; test: LUMIER: Protein A-ATGL variant and firefly luciferase-partner co-expressed in HEK293T, lysates immunoprecipitated on IgG-coated plates, co-precipitated partner measured as luciferase luminescence; details: with perilipin-1, mouse (mPlin1), transient co-transfection, IgG-coated LUMITRAC plates, 2 h at 4 °C, three PBS washes, Bright-Glo luciferase reagent, triplicates per assay, two …, parent: 0.26, not graded, scale: log2 fold change of co-immunoprecipitated luminescence relative to wild-type ATGL within each experiment
endpointLabel: screen value

{"columns": ["mutationList", "valueReported"],
 "data": [
  ["chain 1 S158A", -0.232],
  ["chain 1 N39E", -0.0832],
  ["chain 1 G59L", -0.00134],
  ["chain 1 F348E", 0.112],
  ["chain 1 G66L", -0.803],
  ["chain 1 V127L", -0.304],
  ["chain 1 T41A", -0.0364],
  ["chain 1 I70A", -0.501],
  ["chain 1 Q396A", 0.313],
  ["chain 1 L62A", 0.475]
]}

a. chain 1 G16K
b. chain 1 E125L
Thinking about recorded screen value values, which is higher, a or b ? Bench note: the answer is the label of the chosen record.
a

I. chain 1 R329E
II. chain 1 R95L
III. chain 1 A104E
Descending sort on screen value required. # respond with the labels, arranged in the requested order
II, I, III
(II: 0.0463, I: -0.367, III: -1.07)

P. chain 1 Q140K
Q. chain 1 P86K
R. chain 1 P103K
Descending sort on screen value required. # respond with the labels, arranged in the requested order
P, Q, R

I. chain 1 R95K
II. chain 1 L62K
Thinking about recorded screen value values, which is higher, I or II ? Bench note: the answer is the label of the chosen record.
II

A. chain 1 P258L
B. chain 1 E368A
Thinking about recorded screen value values, which is higher, A or B ? Bench note: the answer is the label of the chosen record.
B
(B: -0.0883, A: -0.67)

Values from paper PMC10958042
